# Test name: optical density shifts of acrAB sulA E. coli – strain DRC41, OD650, 48 h, E. coli filamentation inducer project, primary screen (AID 1152);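 note: E. coli MC1000 strain DRC41 lacking acrAB efflux pump and sulA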
# Measurement context: higher = more signal, called active from +8 up or from −8 down
Exercise: state measured z-score for each of the compounds provided.
Give bare numbers.

Here are 3 compounds together with their reported answers.
Query: # query: z-score of entry `C[C@@]1([C@@H](NC(=O)c2cccs2)c2ccc(-c3ccccc3)cc2)C[C@H]1C1CCCCC1`
Reply: -1.79

Query: Which z-score value is on record for `CCCN1C(=O)[C@@]2(Cc3ccccc3)N=C(c3ccc(OCCCO)cc3)O[C@H]2c2ccccc21` ?
Reply: 0.299

Query: Name the reported z-score value associated with the compound `COc1ccc(C#Cc2ccc3c(c2)[C@]2(C(=O)N3)[C@H](C(=O)O)[C@H]3C(=O)O[C@H](c4ccccc4)[C@H](c4ccccc4)N3[C@@H]2c2ccc(OCCO)cc2)cc1`
Reply: 0.962

Hi! Can you tell me z-score for each of these compounds?
1. O=C1O[C@H](c2ccccc2)[C@H](c2ccccc2)N2[C@H]1[C@@H](C(=O)N1CCN(c3ncccn3)CC1)[C@]1(C(=O)Nc3ccc(C#CCCO)cc31)[C@H]2c1ccccc1OCCO
2. CCCCCCC#C[Si](O[C@H](c1ccccc1)c1cn(Cc2cccc(Cl)c2)nn1)(C(C)C)C(C)C
3. O=C1c2ccccc2C(=O)C2CC([C@H]3Oc4ccccc4S(=O)(=O)N4CCC[C@@H]34)=CCC12 (stereo not given in full)
4. COC(=O)[C@@]1(Cc2ccc(OC)cc2)[C@H]2c3cc(C(=O)N4CCCC4)n(CCF)c3C[C@H]2CN1C(=O)c1ccccc1
5. CC(C)C[C@@H]1NC(=O)[C@@H]2C[C@H](C(=O)NCCCC[N+](C)(C)C)[C@H](c3cccc(OCCO)c3)N2C1=O
6. CC(C)(C)N1CC=CC23O[C@@H]4C=CCCOC(=O)C4[C@H]2C(=O)N(CCCO)[C@@H]3C1=O (stereo not given in full)
7. CCCCC(CC)C(O)C1C=CC2C(=O)NC(=O)C2N1Nc1ccccn1 (stereo not given)
8. O=C1O[C@H](c2ccccc2)[C@H](c2ccccc2)N2[C@H]1[C@@H](C(=O)N1CCN(c3ncccn3)CC1)[C@]1(C(=O)Nc3ccc(C#CCCO)cc31)[C@H]2c1ccc(OCCO)cc1

Reply:
1. 0.313
2. 1.9
3. 1.03
4. -1.28
5. -0.44
6. 0.471
7. -0.757
8. -0.0115

* * *

# Test name: ATP-based viability of Huh7 replicon cells – cell-based, CellTiter-Glo luminescence, basal, 48 h, cytotoxicity control for HCV replication inhibitor project, primary screen (AID 1143);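 note: Huh7 hepatoma cells carrying a hepatitis C replication reporter with no stimulus; test concentration not given here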
# Measurement context: higher = more signal, called active from +8 up or from −8 down
Kindly state z-score for each of the entries shown.
Give bare numbers.

Examples from the recorded data:
Query: Record request: z-score value, item `C=CCOC(=O)[C@@H]1[C@H]2C(=O)O[C@H](c3ccccc3)[C@H](c3ccccc3)N2[C@H](c2ccc(OCCOC(=O)[C@H]3C[C@H]4C(=O)N[C@@H](Cc5ccccc5)C(=O)N4[C@H]3c3cccc(OCCO)c3)cc2)[C@@]12C(=O)Nc1ccc(I)cc12`
Reply: -0.467

Query: Reported z-score, compound `CC(=O)NCCCC[C@@H]1NC(=O)[C@@H]2C[C@H](C(=O)NCCCC[N+](C)(C)C)[C@H](c3cccc(OCCO)c3)N2C1=O` : ____
Reply: -0.283

Query: # query: z-score of entry `NC(=O)NCC#Cc1ccc2c(c1)[C@]1(C(=O)N2)[C@H](c2ccc(O)cc2)N2[C@H](c3ccccc3)[C@H](c3ccccc3)OC(=O)[C@H]2[C@@H]1C(N)=O`
Reply: -0.281

Query: Suppose we examine the compound `NC(=O)NCC#Cc1ccc2c(c1)[C@]1(C(=O)N2)[C@H](c2ccc(OCCO)cc2)N2[C@H](c3ccccc3)[C@H](c3ccccc3)OC(=O)[C@H]2[C@@H]1C(=O)N1CCN(c2ncccn2)CC1` ; what z-score value has been reported?
Reply: 0.342

Pending compound:
Query: Any idea what z-score was measured for `C=CCNC(=O)[C@H]1[C@@H]2C(=O)O[C@@H](c3ccccc3)[C@@H](c3ccccc3)N2[C@@H](c2ccc(O)cc2)[C@]12C(=O)N(C(=O)OCCOC)c1ccc(C#CC3(O)CCCCCC3)cc12` ?
Reply: -1.07

* * *

# Test name: probe aEGFR binding to arrayed compounds – biochemical, biotinylated probe, 635/667 nm fluorescence, primary screen (AID 1097);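 note: probe is a biotinylated anti-EGFR antibody binding compounds printed on slides; score combines fluorescence near 667 nm and signal to noise of each spot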
# Measurement context: small-molecule microarray, higher = more signal
So basically every entry gets a class from its composite z-score, ranges being label 0: < -0.1; label 1: ≥ -0.1 and < -0.03; label 2: ≥ -0.03

The examples below pair each entry with its known result.
Query: Quick check: band for `C#CCNS(=O)(=O)N(C)C`
Reply: label 1

Query: Any idea which band `CCCNC(=O)[C@@]1(Sc2ccc(C)cc2)CC(=O)N(Cc2ccccc2)[C@@H]1c1ccc(CO)cc1I` is in?
Reply: label 0

Query: Which class does `C=C(C(=O)CC[C@H](OC(=O)c1cccnc1)c1ccc(OCCO)cc1)C(C)C` fall in?
Reply: label 1

Query: Which band does CCCCCCCCCCC(O)C1C=CC2C(=O)NC(=O)C2N1Nc1ccccn1 (centres undefined) fall in?
Reply: label 0

Query: Returns: class label. Input: `COC(=O)[C@@]1(Cc2ccccc2)[C@H]2c3cc(C(=O)N4CCCC4)n(Cc4ccccc4)c3C[C@H]2CN1C(=O)c1ccccc1`
Reply: label 2

Query: Exam item: assign O=C1C2C=CC(C(O)c3cccc4ccccc34)N(Nc3ccccc3)C2C(=O)N1c1ccccc1 (centres undefined) to the correct category.
Reply: label 2

Query: Band of `COC(=O)[C@@]1(Cc2ccc(OC)cc2)[C@H]2c3cc(C(=O)N(C)C)n(CCF)c3C[C@H]2CN1C(=O)c1ccccc1` ?
Reply: label 2

Let's switch to this compound now.
Query: Kindly state the category for this compound: `C[N+](C)(C)CCCCCCNC(=O)[C@@H]1C[C@@H]2C(=O)NCC(=O)N2[C@@H]1c1ccc(O)cc1`
Reply: label 0

* * *

Assignment: determine reported composite z-score for the given molecules.
# Study system: Alpha-bungarotoxin (Bungarus multicinctus)
# Test name: compounds binding labelled alpha-BTX control protein – biochemical, small-molecule microarray, Alexa647 label, 635/667 nm fluorescence, artefact control for SMM control protein annotation, profiling panel (AID 1117)
# Measurement context: alpha-BTX-A647 binding fluorescence, higher = more signal

Please review the entries below; each comes with its answer.
Query: What does the record list as composite z-score for `Cc1ccc(F)cc1S(=O)(=O)N[C@@H]1CCN(C(=O)c2ccc(OC(C)C)cc2)C1` ?
Reply: 0.247

Query: Which composite z-score value is on record for Cc1ccc(C(C)CC(O)C2C=CC3C(=O)N(Cc4ccccc4)C(=O)C3N2n2cnnc2)o1 (centres undefined) ?
Reply: 0.279

Query: Data request, read-out composite z-score, for `COCCCNC(=O)[C@@]1(Cc2ccccc2)COC(c2ccc(OCCCO)cc2)=N1`
Reply: 0.943

Query: For `CO[C@H]1O[C@H](CO)[C@@H](OC(=O)Nc2cccc(F)c2)[C@H](OC(=O)Nc2ccc3c(c2)OCO3)[C@H]1OC(=O)Nc1ccc2c(c1)OCO2` , what is its reported composite z-score?
Reply: 0.972

Query: Would you kindly share the measured composite z-score for `CN(C)CCCCCCNC(=O)[C@@H]1C[C@@H]2C(=O)NCC(=O)N2[C@@H]1c1ccc(O)cc1` ?
Reply: 1.83

Query: Given the entry `COc1ccc([Si](C)(C)[C@@H]2[C@@H](CCO)O[C@]3(C(=O)N(Cc4cccc(N5C(=O)COc6ccccc65)c4)c4ccccc43)[C@H]2C)cc1` , report its measured composite z-score.
Reply: 0.748

Query: Requested field: composite z-score. Item: `CCOC(=O)C1=CC[C@@H](c2ccccc2)N(S(=O)(=O)c2ccc(C)cc2)[C@H]1C=C(C)C`
Reply: 0.162

Query: Name the recorded composite z-score for `NC(=O)[C@@H]1[C@H]2C(=O)O[C@H](c3ccccc3)[C@H](c3ccccc3)N2[C@H](c2ccccc2OCCO)[C@@]12C(=O)Nc1ccc(C#CCCO)cc12` .
Reply: 1.18

Return reported composite z-score values for all items listed beneath this line.
1. COCCOC(=O)N1C(=O)[C@@]2(c3cc(C#CCC(C(=O)OC)C(=O)OC)ccc31)[C@H](c1ccc(OCCO)cc1)N1[C@H](c3ccccc3)[C@H](c3ccccc3)OC(=O)[C@H]1[C@@H]2C(N)=O
2. CN(C)CCCN1C(=O)[C@@]2(Cc3ccccc31)c1ccccc1C(=O)N(Cc1ccccc1)[C@H]2c1ccc(CO)cc1
3. CC(C)[Si](C#C[Si](C(C)C)(C(C)C)C(C)C)(O[C@H](C)c1cn(Cc2cccc(Cl)c2)nn1)C(C)C
4. COc1ccccc1CN1C(=O)c2ccccc2[C@](Cc2ccccc2I)(C(=O)NCCN2CCOCC2)[C@@H]1c1ccc(CO)cc1

Reply:
1. 0.992
2. 0.648
3. 1.03
4. 1.19

Report composite z-score for each item below.
1. COC(=O)[C@@]1(Cc2ccc(F)cc2)[C@H]2c3cc(C(=O)N4CCCC4)n(Cc4ccccc4)c3C[C@H]2CN1C(=O)c1ccccc1
2. C=CCOC(=O)[C@@H]1[C@H]2C(=O)O[C@H](c3ccccc3)[C@H](c3ccccc3)N2[C@H](c2ccc(OCCOC(=O)[C@H]3C[C@H]4C(=O)N[C@@H](Cc5ccccc5)C(=O)N4[C@H]3c3cccc(OCCO)c3)cc2)[C@@]12C(=O)Nc1ccc(I)cc12

Reply:
1. 0.657
2. 1.03
